Origin of the recorded values: PubChem BioAssay (NCATS)

system: CP215; assay: qHTS profiling for inhibitors of Plasmodium falciparum proliferation (AID 504749); note: nearly all actives have a fitted effect of over 60% in size; conditions: P. falciparum in erythrocytes, SYBR Green DNA, 72 h; series mostly up to 28.7 µM
Results filed as inconclusive are left out. The source made the active and inactive calls. Calls come from the whole dose curve; as a rule, active = well fitted inhibition curve with a large enough effect; inconclusive = small, poorly fitted or top-dose-only effect; inactive = flat fitted curve, though single readings scatter.
Possible outcomes: t (active), f (inactive)

{"columns": ["COMPOUND", "CLASS LABEL"],
 "data": [
  ["CO", "f"],
  ["O=P(O)(O)CP(=O)(O)O", "f"],
  ["CCCCCCCCCCCCOCCCN", "f"],
  ["CCOC(=S)SSC(=S)OCC", "f"],
  ["O=C(O)c1cc(N=Nc2ccc(O)c(C(=O)O)c2)ccc1O", "f"],
  ["CC(C)CCC[C@@H](C)[C@H]1CC[C@H]2[C@@H]3CC=C4C[C@@H](O)CC[C@]4(C)[C@H]3CC[C@]12C", "f"],
  ["C[C@]12CCC(=O)C[C@@H]1CC[C@@H]1[C@@H]2CC[C@]2(C)C=CC[C@@H]12", "f"],
  ["CNC(=O)OCc1cccc(COC(=O)NC)n1", "f"],
  ["CC(CC=O)CCCC(C)(C)O (configuration not stated)", "f"],
  ["O=C(O)CC/C=C\\CC[C@@H]1[C@@H](N2CCCCC2)[C@@H](O)C[C@@H]1OCc1ccc(-c2ccccc2)cc1", "f"],
  ["CC(=O)N[C@@H]1C(O[C@H]2O[C@H](C(=O)O)C(O)[C@H](O)[C@H]2O)[C@H](O)[C@@H](CO)O[C@H]1O[C@@H]1C(C(=O)O)O[C@@H](O[C@H]2[C@H](O)[C@@H](CO)OC(O)[C@@H]2NC(C)=O)[C@H](O)[C@H]1O (some centres not stated)", "f"],
  ["N=C(N)c1ccc(/C=C/c2ccc(C(=N)N)cc2O)cc1", "t"]
]}

* * *

experiment: Cellular Toxicity (caspase-3) Jurkat (AID 655); settings: Jurkat caspase-3 activation, luminescence; series mostly up to 92.2 µM;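 note: cells exposed to compound for 16 h at 37 °C before reading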
Inconclusive results are not listed. The source made the active and inactive calls. Calls come from the whole dose curve; as a rule, active = well fitted activation curve with a large enough effect; inconclusive = small, poorly fitted or top-dose-only effect; inactive = flat fitted curve, though single readings scatter.
Classes used: active, inactive

{"columns": ["LINE NOTATION", "CLASS LABEL"],
 "data": [
  ["CC1=CC(=O)NS(=O)(=O)O1", "inactive"],
  ["C[C@H](CCC(=O)O)[C@H]1CC[C@H]2[C@@H]3CC[C@@H]4C[C@H](O)CC[C@]4(C)[C@H]3C[C@H](O)[C@]12C", "inactive"],
  ["c1ccc2ccccc2c1", "inactive"],
  ["C[C@H](CCC(=O)O)[C@H]1CC[C@H]2[C@@H]3[C@H](O)C[C@@H]4C[C@H](O)CC[C@]4(C)[C@H]3C[C@H](O)[C@]12C", "inactive"],
  ["C[C@H]1O[C@@H](O[C@H]2[C@@H](O)C[C@H](O[C@H]3[C@@H](O)C[C@H](O[C@H]4CC[C@@]5(C)[C@H](CC[C@@H]6[C@@H]5C[C@@H](O)[C@]5(C)[C@@H](C7=CC(=O)OC7)CC[C@]65O)C4)O[C@@H]3C)O[C@@H]2C)C[C@H](O)[C@@H]1O", "active"],
  ["OCC(O)CO", "inactive"],
  ["CC[C@H]1OC(=O)[C@H](C)[C@@H](O[C@H]2C[C@@](C)(OC)[C@@H](O)[C@H](C)O2)[C@H](C)[C@@H](O[C@@H]2O[C@H](C)C[C@H](N(C)C)[C@H]2O)[C@](C)(O)C[C@@H](C)CN(C)[C@H](C)[C@@H](O)[C@]1(C)O", "inactive"]
]}
